B1: KLHL14 (parent)
chain: CAVLDDSIYLVGGYSWSMGAYKSS

Variants of: B1
procedure.summary: protein stability index of a GFP-peptide fusion (GPS, HEK-293T) (PSI 1-6); higher = more stable;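 further: lentivirally expressed fusions sorted by FACS into six bins by GFP to DsRed ratio, PSI derived from sequencing read proportions per bin multiplied by bin number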
conditions: c terminus: a fixed tail appended
# maps each entry to its protein stability index
Answer as a number with no unit attached.

Worked examples, 3 variants total:
alteration=Y21I value_reported=2.99
alteration=V11K value_reported=2.1
alteration=Y21G value_reported=1.08

// below: protein stability index requested for another variant
Memo: `L10F` , reported protein stability index: 3.26
